test: Plasma pharmacokinetics after single oral dose of Δ8-THCV in MCT oil (LC-MS/MS, non-compartmental analysis); assay type: in vivo, human; settings: human, plasma, po, 25 mg, 25 mg single oral Δ8-THCV in MCT oil; Mean (±SD)
Each entry below carries its recorded Cmax.
# output: bare number, implied unit ng/mL

// solved cases for Cmax follow
| COMPOUND | Cmax [ng/mL] |
| --- | --- |
| CCCc1cc(O)c2c(c1)OC(C)(C)[C@@H]1CC=C(CO)C[C@@H]21 (racemic) [11-OH-Δ8-THCV, (±)-11-hydroxy-Δ8-THCV] | 0.9 |
| CCCc1cc(O)c2c(c1)OC(C)(C)[C@@H]1CC=C(C)C[C@@H]21 [Δ8-THCV, Δ8-tetrahydrocannabivarin] | 2.6 |
| CCCc1cc(O)c2c(c1)OC(C)(C)[C@@H]1CC=C(C(=O)O)C[C@@H]21 | 151 |

# context switch: different compound, same Cmax
Returns the measured Cmax for the input compound. Input: CCCc1cc(O)c2c(c1)OC(C)(C)[C@@H]1CCC(C(=O)O)=C[C@@H]21
4.2
